Each record here notes measured growth.
# Test system: NCI-H322M lung
# Procedure details: NCI-60 one-dose screen, 48 h (100 = growth as untreated, 0 = no growth, -100 = all killed)
# Experimental parameters: 10 µM unless noted
This is part of a sample that, as a whole, favours compounds with a hit. Of some 83,000 tested, about 20% had one in any assay.
Response body: numeric value in %, unit text excluded.

The measured growth that `Cn1cc(-c2nonc2-c2c[nH]c3ccccc23)c2cccnc21` showed for NCI-H322M lung is 88.6

The measured growth that `O=C1CC(=NCC(=O)n2c(-c3ccccc3)nc3ccccc32)NN1` showed for NCI-H322M lung is 103

The measured growth that `CC1=C[C@H]2c3c(c(O)c(O)c4oc(-c5ccccc5)cc(=O)c34)[C@H](c3cc(O)c(O)c4oc(-c5ccccc5)cc(=O)c34)[C@H]2C(C)(C)C1` showed for NCI-H322M lung is 6.91

The measured growth that Cc1cc(N2CCN(C)CC2)nc(NC2CCCC(Nc3ccnc4cc(Cl)ccc34)C2)n1 (stereo not given) showed for NCI-H322M lung is -6.32

The measured growth that `CC(=O)c1cc(C(=O)c2ccc3c(c2)Sc2ccccc2N3)n2ccccc12` showed for NCI-H322M lung is 24.5

Next:
The measured growth that `CSc1nc2c(c(=O)[nH]1)C1(C(=O)Nc3ccccc31)c1c(nc(SC)[nH]c1=O)N2` showed for NCI-H322M lung is 92.5

The measured growth that `O=C(CCl)Oc1ccc(-c2ccccc2)c(Br)c1` showed for NCI-H322M lung is 105

The measured growth that `Cc1ccccc1COc1ccc(-c2onc(C)c2-c2ccc(Cl)cc2)cc1` showed for NCI-H322M lung is 97.6

The measured growth that `CN1CCN(c2nc(NCCCCNc3ccnc4cc(Cl)ccc34)c3ccccc3n2)CC1` showed for NCI-H322M lung is 84.9

The measured growth that `COC[C@H](C)n1c(C2CCOCC2)nc2cnc3cc(-c4c(C)noc4C)c(OC)cc3c21` showed for NCI-H322M lung is 50.4
